experiment: folding stability dG unfold (combined trypsin and chymotrypsin); higher = more stable
readoutType: folding stability dG unfold (kcal/mol)

{"chain": "SMVYVFEVPEGDPEKAEELIRAKLEEEFGYKVESVATPGGGGARVVLVVDPVEDKAYAEVIPFAPDGSPASA [r9_173_TrMRF]", "readoutType": "folding stability dG unfold", "unitName": "kcal/mol", "observedValue": 0.618}
{"chain": "SAGGMKIVEITEEVPPGAVVRITFEDGSKREIKIPNVAELKGKKITLELPGLKVVKIEVVPAKEGEEVSAGG [r13_587_TrROS_Hall]", "readoutType": "folding stability dG unfold", "unitName": "kcal/mol", "observedValue": 2.05}
{"chain": "SPPFKIKEIKIEIFPNGTVKIEYRFPSSGHYVKFSIPVDPKKGRIPINMEIYNPDNGKVWEFSATIRIKKSA [r9_825_TrROS]", "readoutType": "folding stability dG unfold", "unitName": "kcal/mol", "observedValue": 4.69}
{"chain": "SAGGLKIDEFERSPNQGRYYVTIKIYHPDNGKPWDIEVPFNPDNGRWSAEEIAKTIAKKFKLPPGFTISAGG [r13_362_TrROS]", "readoutType": "folding stability dG unfold", "unitName": "kcal/mol", "observedValue": 2.05}

---

assay: folding stability dG unfold (combined trypsin and chymotrypsin); higher = more stable

{"chain": "SAGGSAGGSEEELKKLLDNIKEVKVVENENGEKYVVFTVTDKNGKKITIVAKSPEARELAKKLSAGGSAGGS [r12_466_TrROS_Hall]", "signQualifier": "=", "folding stability dG unfold, kcal/mol": 1.96}
{"chain": "SAGGSMTAEELEGLPAEEIAELLPSDYTVSFIPETGLLVVEAPTRVVLATYNPAEGTVTLLEVRDASAGGSA [r2_470_TrMRF]", "signQualifier": "=", "folding stability dG unfold, kcal/mol": 0.91}
{"chain": "SAGGETVTLTLKVETLEELEALAKKLAEETGEEVTIEVIGPDGKKYTFKTPEELKNIPGATVKITIKKSAGG [r13_620_TrROS_Hall]", "signQualifier": "=", "folding stability dG unfold, kcal/mol": 2.87}
{"chain": "PDDPEEQREQMPPIPPEWAEELARKFAEKLGDEEVTEVEVDDITPNGYIEVEIENPDGGEVKIEIPMDDIMS [r1_435_TrROS]", "signQualifier": "<", "folding stability dG unfold, kcal/mol": -1}
{"chain": "SAGGEPPPVRVSFSVEEVTVGAGPVFVRRVVTYDPAEGRVSEFVEVFERGRGGLLGRSSRTVPAEELASAGG [r13_772_TrMRF]", "signQualifier": "=", "folding stability dG unfold, kcal/mol": 4.44}
{"chain": "SAGSKEALLSDPSFEPVEVEIHLEIEVPGVTPEEAEAIAKELEKEITEELKKKGIKNVKVTVTIRYVERSAG [r5_431_JUSTAS]", "signQualifier": "=", "folding stability dG unfold, kcal/mol": 2.24}
{"chain": "SAGGSAGGSAGKLPEGMKMEVRPKTIFNEDGYMIKITIIRAPDPNILAINIEIIPPGDPISAGGSAGGSAGG [r11_338_TrROS]", "signQualifier": "=", "folding stability dG unfold, kcal/mol": 2.14}
{"chain": "SAGSYTVDVSYRVPVRLSPAGAVEVPVEVELKRYLPDGVPLGEEEIEEEEEKLAEEIAKELAEALAPLSAGG [r19_389_JUSTAS]", "signQualifier": "<", "folding stability dG unfold, kcal/mol": -1}
{"chain": "SAGGSAGSYLVRVRIRRPEDGKELADAVFEVPPDEPVTAEAILKELGIPPEEAKNIEIEVEVFELGSAGGSA [r15_665_TrMRF]", "signQualifier": "=", "folding stability dG unfold, kcal/mol": 2.75}
{"chain": "SAGGSAGGSAGGGIYEVDENGNPLPPRPYLVLKIGYEVGYLPDGGAGLSLNIEIYPVYDASAGGSAGGSAGG [r7_572_TrMRF]", "signQualifier": "=", "folding stability dG unfold, kcal/mol": 3.79}
{"chain": "SAGGSAIRIEPDEDGYIKIEKPSPPGEPASELIEELKDFFPNWEVETHPHPNGRAEIIFRIPPDQFSAGGSA [r15_1047_TrROS]", "signQualifier": "=", "folding stability dG unfold, kcal/mol": -0.132}
{"chain": "SAGGSAPPASAPGVVEEVEAEVPVDVPEVARLTGRPPRPGERYRVRVVRRVYPDGRVETDVYIEPGSAGGSA [r15_91_TrMRF]", "signQualifier": "=", "folding stability dG unfold, kcal/mol": -0.252}
{"chain": "SMKISSFTLAPGGEAVIELTFESGETRRVRLTGLTSKAEVEAEAKRLQEELEKGNPRPIKTVTVSPAPPASA [r9_1135_JUSTAS]", "signQualifier": "=", "folding stability dG unfold, kcal/mol": 1}
{"chain": "SAGGKKKYKLIIKIKFKKGDIDKAKKEVEAIANKIKDEFEKKGVKVKVKVSYDKDNDIVYIEVEFEVPSAGG [r13_755_TrMRF]", "signQualifier": "=", "folding stability dG unfold, kcal/mol": 4.24}
{"chain": "SAGGSAGGSAGGKPIYILAEHPSNGKVVLLPVDSPEKAIEFAKALADVPDFKIAHVDAFGSAGGSAGGSAGG [r11_951_TrMRF]", "signQualifier": "=", "folding stability dG unfold, kcal/mol": -0.287}
{"chain": "SAGGSAGGSAGGGGKKKREISIMFEGGTPSDFKREAREIANSPENKDNVDEVEITMMPGSAGGSAGGSAGGS [r10_351_TrROS]", "signQualifier": "<", "folding stability dG unfold, kcal/mol": -1}
{"chain": "SAGGSAGGSAGGSKFLVKTSVEVFKNPVGGNRYGAKITTLAVNPDTNEVTLSESYLPLDLSAGGSAGGSAGG [r7_216_TrMRF]", "signQualifier": "=", "folding stability dG unfold, kcal/mol": 0.62}
{"chain": "SAGGSAGGSAGGSNIEVHYFPDGAIVMTIREPNGWYIKIVARIPPDGNIKITEIELFPMSAGGSAGGSAGGS [r4_246_TrROS]", "signQualifier": "=", "folding stability dG unfold, kcal/mol": 3.49}
{"chain": "SAGGSAIKVSTSPSDVSVSKVPLPNGETLTIEVSSNGETTVTKTSPTPGTPTTTTVPGASVEELLESAGGSA [r15_406_JUSTAS]", "signQualifier": "=", "folding stability dG unfold, kcal/mol": 0.762}
{"chain": "DMEPEPFTIELPNVKIEVQVYRTPNKLSVNAPIEFPNGKNLTISFKYEPTPDGIKLEISIMIPKKAIEKLLS [r1_153_TrROS]", "signQualifier": "=", "folding stability dG unfold, kcal/mol": 3.1}
{"chain": "SAGGSAGGSAKKKVEIKIEIEEVTNKDGKKYIKIKIEVKVSEEVKKELADALKKAGFKVEPSAGGSAGGSAG [r3_157_TrROS_Hall]", "signQualifier": "=", "folding stability dG unfold, kcal/mol": 2.17}
{"chain": "SPAPPMRIDNIKPEKEDPNGDERKYRVYWQGPNGRPYHYEGPLEELEDMLDEDNIDPDNFWPGDEITIKVSA [r9_1078_TrROS]", "signQualifier": "=", "folding stability dG unfold, kcal/mol": 0.421}
{"chain": "SAGSFSVRLTLRAPDGTTETVSGPAAVAAAIAALPADETAESSVPGSSSSSTVTLPAGGTFSLSTLSSSSAG [r5_506_JUSTAS]", "signQualifier": "<", "folding stability dG unfold, kcal/mol": -1}
{"chain": "SAGGSAGGDRLEVVAPVDDPVEQAREFAERLREEFRRRYPDREIDRVEVFYDPGARTLHVRLYPSAGGSAGG [r6_662_TrMRF]", "signQualifier": "=", "folding stability dG unfold, kcal/mol": 2.51}
{"chain": "SAGVKPTPSGKNILEIDPETGKIRFVNNNGELFELPTGNDSLDAAIKEAVEKLGYPPDTPFNIDEIKIGSAG [r5_923_TrMRF]", "signQualifier": "=", "folding stability dG unfold, kcal/mol": 1.54}
{"chain": "SAGGSMISTLSESVDPAKNTTYYLNLYTEGSRAYGALVTVTTDPATGTKTITTKFPALPEVTTTETVASAGG [r13_615_JUSTAS]", "signQualifier": "=", "folding stability dG unfold, kcal/mol": 0.551}
{"chain": "SAGGSALKVKSVHQNPDDNYYMITVTIPGPDKAPREIMFPSPEDLEDKLDNLPPGIESVEIHPMKPSAGGSA [r15_589_TrROS]", "signQualifier": "<", "folding stability dG unfold, kcal/mol": -1}
